system: RIOK2; conditions: concentration: 1 μM, replicates: in singlicate; n = 1;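 further: KINOMEscan kinase panel screen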
REPORTED_PROPERTY: %Inh

>>> reported_result("Cc1cn2c(=O)cc(N3CCOCC3)nc2n1Cc1cccc(Cl)c1Cl")
"29%"
>>> reported_result("O=c1cc(N2CCOCC2)nc2n(Cc3cccc(C(F)(F)F)c3)ccn12")
"7%"
>>> reported_result("COc1ccc(Nc2nccc(N3CCC(NC(=O)Nc4cccc(C(C)=O)c4)C3)n2)cc1 (stereo not drawn)")
"0%"
>>> reported_result("CN(C1=C(c2ccccc2)C(=O)NC1=O)c1ccccc1")
"4%"
>>> reported_result("CCCCCc1nc2c(N)ncnc2n1CCCCC")
"0%"
>>> reported_result("COc1ccc(CNC(=O)NC2CCN(c3ccnc(Nc4ccc(OC)cc4)n3)C2)cc1 (stereo not drawn)")
"0%"
>>> reported_result("NS(=O)(=O)c1cccc(-c2ccc3nccc(-c4cccc(S(N)(=O)=O)c4)c3c2)c1")
"0%"
>>> reported_result("Cc1cccc(-c2nc(Nc3ccc4ncsc4c3)c3ccccc3n2)n1")
"31%"
>>> reported_result("c1ccc(-c2cc(-c3c[nH]nc3-c3ccccn3)ccn2)cc1")
"1%"

###

tested on: SRPK1; settings: concentration: 1 μM, replicates: in singlicate; n = 1
The threshold is 30%. Values of %Inh beneath it are tagged TRUE; values meeting or exceeding it are tagged FALSE.

>>> assigned_label("NCC(NC(=O)c1cc(-c2cn[nH]c2)c(-c2ccnc3[nH]ccc23)s1)c1ccccc1.O=C(O)C(F)(F)F.O=C(O)C(F)(F)F (stereo not drawn) [GSK1325775]")
"FALSE"
>>> assigned_label("COc1cc(Nc2nccc(N3CCC(NC(=O)c4cccc(NC(C)=O)c4)C3)n2)cc(OC)c1OC (stereo not drawn) [GSK1379754]")
"FALSE"
>>> assigned_label("Fc1ccc(-c2nn3c(OCC(F)(F)F)cccc3c2-c2ccncc2)cc1 [GW514784]")
"TRUE"
>>> assigned_label("c1ccc(-c2cc(-c3c[nH]nc3-c3ccccn3)ccn2)cc1 [GW576604]")
"TRUE"
>>> assigned_label("C[C@@H](Oc1cc(-n2cnc3ccc(NC(=O)NC(C)(C)C)cc32)sc1C(N)=O)c1ccccc1Cl [GSK346294]")
"TRUE"
>>> assigned_label("O=C1Cc2cc(Nc3nc(NCc4cccc(S(=O)(=O)C(F)(F)F)c4)ncc3C(F)(F)F)ccc2N1")
"TRUE"

###

system: EGFR; settings: concentration: 1 μM, replicates: in singlicate; n = 1
REPORTED_PROPERTY: %Inh

>>> reported_result("Cc1cccc(-c2nc(Nc3ccc4ncsc4c3)c3ccccc3n2)n1 [GW867588]")
"2%"
>>> reported_result("N#Cc1ccc(-c2cc(-c3c[nH]nc3-c3ccccn3)ccn2)cc1 [GW693028]")
"0%"
>>> reported_result("O=c1cc(N2CCOCC2)nc2n(Cc3cccc(F)c3)ccn12 [GSK2297430]")
"32%"
>>> reported_result("Nc1nccc(-c2c(-c3ccc(F)cc3)ncn2C2CCN(CC(F)(F)F)CC2)n1 [SB-236560]")
"29%"
>>> reported_result("COc1ccc(S(=O)(=O)NC2CCN(c3cc(C)nc(Nc4cccc(C#N)c4)n3)CC2)cc1.O=C(O)C(F)(F)F [GSK1653539]")
"18%"
>>> reported_result("CCc1nc(-c2cccc(C)c2)c(-c2ccnc(NCc3ccccc3)c2)s1")
"0%"
>>> reported_result("NS(=O)(=O)c1cccc(-c2ccc3ncc(N4CCOCC4)nc3c2)c1 [GSK1535721]")
"12%"
>>> reported_result("O=C(NOCC1CC1)c1ccc(F)c(F)c1Nc1ccc(I)cc1Cl")
"0%"
>>> reported_result("c1ccc(-c2n[nH]cc2-c2ccnc3ccccc23)nc1 [GW271431]")
"35%"
>>> reported_result("O=c1cc(N2CCOCC2)nc2n(Cc3cccc4ccccc34)ccn12 [GSK2333389]")
"0%"
>>> reported_result("COc1ccc(CNC(=O)NC2CCN(c3ccnc(Nc4ccc(OC)cc4)n3)C2)cc1 (stereo not shown) [GSK1379727]")
"18%"
>>> reported_result("Cc1c(Cn2c(C)nn3c(=O)cc(N4CCOC(C)C4)nc23)cccc1C(F)(F)F (stereo not shown) [GSK2344444]")
"34%"
>>> reported_result("COCCNC(=O)c1ccc(-c2cc(C(=O)NC3CC3)cc(F)c2C)cc1 [GW868318]")
"21%"
>>> reported_result("COc1ccc(Nc2ncc(C#N)c(Nc3ccccc3C(N)=O)n2)cc1N1CCN(C)CC1.Cl [GSK1558669]")
"92.7%"
>>> reported_result("CC(C)Oc1ccc2c(-c3ccnc(Nc4ccc(N5CCN(C)CC5)cc4)n3)cnn2n1 [GW696155]")
"50%"
>>> reported_result("CN1c2ccc(NCc3ccc(F)cc3)cc2-c2c(cnn2C)S1(=O)=O")
"0%"
>>> reported_result("CN(C(=O)c1ccc(-c2cc(-c3c[nH]nc3-c3ccccn3)ccn2)cc1)C1CCOCC1 [GW810083]")
"0%"
>>> reported_result("O=C(NCCNc1ccnc(Nc2ccc(F)cc2)n1)Nc1ccccc1F [GSK1379880]")
"22%"
>>> reported_result("CCCCCc1nc2c(N)ncnc2n1CCCCC [SKF-97255]")
"0%"

###

%Inh by entry:
tested on: MAP4K4; conditions: concentration: 1 μM, replicates: in singlicate; n = 1
REPORTED_PROPERTY: %Inh (%)

>>> reported_result("CC(C)Oc1ccc2c(-c3ccnc(Nc4ccc(N5CCN(C)CC5)cc4)n3)cnn2n1 [GW696155]")
1
>>> reported_result("Cn1cc(-c2ccc3c(c2)CCN3C(=O)Cc2ccccc2Cl)c2c(N)ncnc21 [GSK2608885]")
58
>>> reported_result("COc1cc(Nc2nccc(N3CCC(NC(=O)c4cccc(NC(C)=O)c4)C3)n2)cc(OC)c1OC (stereo not shown) [GSK1379754]")
23
>>> reported_result("CN1c2ccc(CNc3ccc(F)cc3)cc2-c2c(cnn2C)S1(=O)=O")
0
>>> reported_result("COc1ccc(Nc2nccc(N3CCC(NC(=O)Nc4cccc(C(C)=O)c4)C3)n2)cc1 (stereo not shown) [GSK1379731]")
8
>>> reported_result("O=C(Nc1n[nH]c2cc(-c3cccc(F)c3)ccc12)C1CC1 [SB-735464]")
42
>>> reported_result("O=C(NCCNc1ccnc(Nc2ccc(F)cc2)n1)Nc1ccccc1F [GSK1379880]")
0
>>> reported_result("Fc1ccc(-c2ncn(CCCN3CCOCC3)c2-c2cccnc2)cc1 [SB-211743]")
0
>>> reported_result("O=C1NC(=O)C(N2CCc3ccccc32)=C1c1cccc(Cl)c1 [SB-408010]")
0
>>> reported_result("CNc1ncnc2[nH]ncc12 [SKF-18355]")
0

###

tested on: ZAP70; settings: concentration: 1 μM, replicates: in singlicate; n = 1
%Inh by entry:
REPORTED_PROPERTY: %Inh (%)

>>> reported_result("C[C@@H](Oc1cc(-n2cnc3ccc(NC(=O)NC(C)(C)C)cc32)sc1C(N)=O)c1ccccc1Cl")
6
>>> reported_result("Cl.Nc1ncnc2occ(-c3ccc(NC(=O)Nc4cc(C(F)(F)F)ccc4F)cc3)c12")
19
>>> reported_result("CC(C)Oc1ccc2c(-c3ccnc(Nc4ccc(N5CCN(C)CC5)cc4)n3)cnn2n1")
65
>>> reported_result("O=C(Nc1cccc(-c2nn3ncccc3c2-c2ccnc(Nc3cccc(C(F)(F)F)c3)n2)c1)c1c(F)cccc1F")
51
>>> reported_result("CN(C(=O)c1ccc(-c2cc(-c3c[nH]nc3-c3ccccn3)ccn2)cc1)C1CCOCC1")
13
>>> reported_result("Cc1ccc(C(=O)NCC(N)=O)cc1-n1c(C)cc(OCc2ccc(F)cc2F)c(Br)c1=O")
0
>>> reported_result("O=C(NCCCN1CCOCC1)c1cccc(Nc2nccc(Nc3ccc(Oc4ccccc4)cc3)n2)c1")
6
>>> reported_result("CN1c2ccc(NCc3ccc(F)cc3)cc2-c2c(cnn2C)S1(=O)=O")
0
>>> reported_result("O=C(NCCNc1ccnc(Nc2ccc(F)cc2)n1)c1cc2ccccc2s1")
6
>>> reported_result("Cc1c(Cn2c(C)nn3c(=O)cc(N4CCOC(C)C4)nc23)cccc1C(F)(F)F (stereo not drawn)")
0
>>> reported_result("Cc1nnc(-c2ccc(C)c(-c3ccc(C(=O)Nc4ccc(NS(C)(=O)=O)cc4)cc3)c2)o1")
15
>>> reported_result("N#Cc1c(N2CCOCC2)sc(-c2ccn[nH]2)c1-c1ccc(Cl)cc1")
0
>>> reported_result("CCn1cnc2c(N)ncnc21")
3
>>> reported_result("CCc1nc(-c2cccc(C)c2)c(-c2ccnc(NCc3ccccc3)c2)s1")
0
>>> reported_result("CN1c2ccc(CNc3ccc(F)cc3)cc2-c2c(cnn2C)S1(=O)=O")
0
>>> reported_result("NS(=O)(=O)c1cccc(-c2ccc3ncc(N4CCOCC4)nc3c2)c1")
0
>>> reported_result("COCCNC(=O)c1ccc(-c2cc(C(=O)NC3CC3)cc(F)c2C)cc1")
0
>>> reported_result("COC(=O)Nc1nc2cc(Oc3ccc(NC(=O)Nc4cc(F)ccc4F)cc3)ccc2[nH]1.Cl")
71
>>> reported_result("Nc1nc(-c2ccc3c(N)n[nH]c3c2)cc(N2CCCC2)n1")
0
>>> reported_result("[2H]C([2H])(c1cccc(C(F)(F)F)c1C)n1ccn2c(=O)nc(N3CCOCC3)cc12")
24
>>> reported_result("COc1ccc(COc2cc(-n3cnc4ccccc43)sc2C(N)=O)cc1")
0
>>> reported_result("CCc1ccnc(/C=C/c2n[nH]c3cc(Sc4ccccc4C(=O)NC)ccc23)c1")
20
>>> reported_result("Cc1nnc(-c2ccc3occ(-c4ccc(C(C)O)cc4)c3c2)o1 (stereo not drawn)")
1
>>> reported_result("Cl.Oc1cccc(Nc2ccnc3cc(-c4ccncc4)ccc23)c1")
2
>>> reported_result("O=C1Cc2cc(Nc3nc(NCc4cccc(S(=O)(=O)C(F)(F)F)c4)ncc3C(F)(F)F)ccc2N1")
9
>>> reported_result("COc1cc2c(cc1OCCN1CCN(C)CC1)ncc1c3ccc(C#N)cc3[nH]c21")
0
>>> reported_result("COc1ccc(Nc2nccc(N3CCC(NC(=O)Nc4cc(C)ccc4C)C3)n2)cc1 (stereo not drawn)")
0
>>> reported_result("Cc1ccc(NC(=O)c2ccnc(N3CCN(C)CC3)c2)cc1-c1ccc(C(=O)NCC2CC2)cc1")
0
>>> reported_result("COc1ccc(Nc2ncc(C#N)c(Nc3ccccc3C(N)=O)n2)cc1N1CCN(C)CC1.Cl")
98.1
>>> reported_result("c1ccc(-c2cc(-c3c[nH]nc3-c3ccccn3)ccn2)cc1")
0
>>> reported_result("CN(C1=C(c2ccccc2)C(=O)NC1=O)c1ccccc1")
0
>>> reported_result("CC(=O)Nc1ccc(COc2ccc(Nc3ccnc4cc(-c5ccccn5)ccc34)cc2)cc1.Cl")
0
>>> reported_result("CSc1ccc(-c2cc3ncnc(SCC(=O)O)c3s2)cc1")
0
>>> reported_result("Fc1ccc(-c2ncn(CCCN3CCOCC3)c2-c2ccccn2)cc1")
3
>>> reported_result("O=C(c1ccc(-c2cc(-c3c[nH]nc3-c3ccccn3)ccn2)cc1)N1CCOCC1")
0
>>> reported_result("N#Cc1ccc(-c2cc(-c3c[nH]nc3-c3ccccn3)ccn2)cc1")
0
